Assay: amyloid nucleation score (Sup35N fusion, yeast selection) (log enrichment); library NNK1; higher = more nucleation; inactive = no reads after selection;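 note: zero at mode of non-aggregating sequences after 7 days selection at 30°C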
Measured metric: amyloid nucleation score
Answer with the value's number alone.

YYKCMATQVVGLLMSVWATY; 1.06
STVWLSVGALAFARASGRRA; 3.74
FWPGFSWSIKLQLTFG; -0.326

Ask: Consider the sequence shown here: GTNYYSSGML What is its recorded amyloid nucleation score?
Reply: 0.114

Ask: Consider the sequence shown here: LCANNFHHVDKTGFAICNIH What is its recorded amyloid nucleation score?
Reply: 3.64

Ask: Consider the sequence shown here: KQSCWALSYVYMTSHVLSGG What is its recorded amyloid nucleation score?
Reply: 0.495

* * *

Test: amyloid nucleation score (Sup35N fusion, yeast selection) (log enrichment); library NNK2; higher = more nucleation; inactive = no reads after selection
Rule: amyloid nucleation score of 0.5 or more gives 1; anything lower gives -1.

// below: answered sequences
RAVTRVKHICLSATRSCDVE; 1
GHVHQNLMRLVNFSKKSTSL; 1
FRYRIYGGHLTINRIIYSLV; -1

Ask: Decide: is the reported value of amyloid nucleation score for DLLHETML equal to or greater than 0.5?
Reply: -1

Ask: Decide: is the reported value of amyloid nucleation score for SYVMFSIMEH equal to or greater than 0.5?
Reply: -1

Ask: Decide: is the reported value of amyloid nucleation score for GLLPVGSVGVRVALVVMRVQ equal to or greater than 0.5?
Reply: 1

Ask: Decide: is the reported value of amyloid nucleation score for DCDMVFFLGIFFKSSGGKGN equal to or greater than 0.5?
Reply: 1

* * *

Test: amyloid nucleation score (Sup35N fusion, yeast selection) (log enrichment); library NNK3; higher = more nucleation; inactive = no reads after selection
Measured metric: amyloid nucleation score

These solved cases illustrate the format of a correct answer.
IPSWELISGHWS; inactive
HNVFVFCNMAVIELQVNDWL; 3.26
WLNKWTHGVIANFYVVSGHP; 1.64
RRFGAFCIVPFERIVLDGWE; inactive

Please examine the following record next.
Ask: Consider the substance shown here: QMRCLY What is its recorded amyloid nucleation score?
Reply: inactive

* * *

Experiment: amyloid nucleation score (Sup35N fusion, yeast selection) (log enrichment); library NNK3; higher = more nucleation; inactive = no reads after selection
Rule: amyloid nucleation score of 0.4 or more gives 1 (yes); anything lower gives 0 (no).

// below: answered substances
SLYRKGRHFGGCSCSIVRFR; 0 (no)
TVIKPWLLICCDLFREVGFA; 1 (yes)
NTSWLNSWATVITIWPYCAL; 1 (yes)
RISSIAEDSSRAGASEHPGQ; 0 (no)
STFSYSPVACWCFGGISQVG; 0 (no)

Ask: Decide: is the reported value of amyloid nucleation score for HCHDVGVLLIKFCNNLWCSH equal to or greater than 0.4?
Reply: 1 (yes)

Ask: Decide: is the reported value of amyloid nucleation score for VFAFTKMESRFLLGLRVDEY equal to or greater than 0.4?
Reply: 1 (yes)

Ask: Decide: is the reported value of amyloid nucleation score for RYVGAVWYYTMNIVNYNSFI equal to or greater than 0.4?
Reply: 1 (yes)

Ask: Decide: is the reported value of amyloid nucleation score for AFCRNRTNVCMICYLRSG equal to or greater than 0.4?
Reply: 1 (yes)

Ask: Decide: is the reported value of amyloid nucleation score for ESVNGTSFPVFIYHRTSFRL equal to or greater than 0.4?
Reply: 1 (yes)

Ask: Decide: is the reported value of amyloid nucleation score for SFAGVCAMCKTCKRAKGVPA equal to or greater than 0.4?
Reply: 0 (no)

Ask: Decide: is the reported value of amyloid nucleation score for TEVSQWGVREVFSLSTSRRL equal to or greater than 0.4?
Reply: 0 (no)

Ask: Decide: is the reported value of amyloid nucleation score for IYSNSLACDRSGFFKASSSQ equal to or greater than 0.4?
Reply: 0 (no)

Ask: Decide: is the reported value of amyloid nucleation score for LMFRTLFK equal to or greater than 0.4?
Reply: 0 (no)
